targetEntity: Recombinant STAT6 protein (STAT6(W123-T658)) (Homo sapiens, UniProt P42226)
Construct: STAT6(W123-T658)
Sequence (P42226 123-658): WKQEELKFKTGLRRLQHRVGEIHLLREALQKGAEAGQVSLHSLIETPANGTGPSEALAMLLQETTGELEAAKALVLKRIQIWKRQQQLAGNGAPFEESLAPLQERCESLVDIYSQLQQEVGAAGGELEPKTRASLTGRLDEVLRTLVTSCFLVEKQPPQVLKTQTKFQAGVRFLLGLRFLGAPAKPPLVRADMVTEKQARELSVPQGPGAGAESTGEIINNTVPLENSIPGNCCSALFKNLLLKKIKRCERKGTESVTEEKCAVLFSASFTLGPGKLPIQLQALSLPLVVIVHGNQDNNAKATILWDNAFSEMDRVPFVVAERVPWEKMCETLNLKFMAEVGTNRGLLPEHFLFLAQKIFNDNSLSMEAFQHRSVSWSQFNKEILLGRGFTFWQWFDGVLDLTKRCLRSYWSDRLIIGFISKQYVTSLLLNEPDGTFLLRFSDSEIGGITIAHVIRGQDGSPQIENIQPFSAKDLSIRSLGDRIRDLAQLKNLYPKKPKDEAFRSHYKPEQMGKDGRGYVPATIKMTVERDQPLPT
assayDetails: STAT6 Fluorescence Polarization (FP) Assay
measurementSetup: STAT6(W123-T658) 250 nM, probe 5-FAM-ApYKPFQDLI-NH2 2 nM, 45-minute incubation
readout: IC50

# IC50 lookup, item O=C(N[C@H]1C[C@@H]2C[C@@H]2C[C@H]2CC[C@@H](C(=O)N3CC(c4nn[nH]n4)C3)N2C1=O)c1cc2cc(C(F)(F)P(=O)(O)O)ccc2s1 0.3 to 3 µM

Consider the compound C[C@@H]1COCCN1C(=O)C1CN(C(=O)[C@@H]2CC[C@@H]3C[C@H]4C[C@H]4C[C@H](NC(=O)c4cc5cc(C(F)(F)P(=O)(O)O)ccc5s4)C(=O)N32)C1 and give its measured IC50. 3 to 30 µM

So what's the measured IC50 for this one? O=C(N[C@H]1C[C@@H]2C[C@@H]2C[C@H]2CC[C@@H](C(=O)N3CC[C@@H](C(=O)N4CCOCC4)C3)N2C1=O)c1cc2cc(C(F)(F)P(=O)(O)O)ccc2s1 (single isomer, unassigned) 3 to 30 µM

Please give the measured IC50 for this compound: Cc1cnc(N2C[C@H](NC(=O)[C@@H]3CC[C@@H]4C[C@H]5C[C@H]5C[C@H](NC(=O)c5cc6cc(C(F)P(=O)(O)O)ccc6s5)C(=O)N43)[C@@H](F)C2)n1C (some centres unmarked) 3 to 30 µM

Fill in: IC50 of Cc1ccccc1C1CN(C(=O)[C@@H]2CC[C@@H]3C[C@H]4C[C@H]4C[C@H](NC(=O)c4cc5cc(C(F)(F)P(=O)(O)O)ccc5s4)C(=O)N32)C1 is ___ 0.3 to 3 µM
